molecular target: alpha2A adrenergic (Homo sapiens, UniProt P08913); assay: InVEST radioligand filter binding, alpha2A adrenergic; details: read-out: IC50 (M) of reference compound, tested in parallel
Sequence (P08913 whole entry): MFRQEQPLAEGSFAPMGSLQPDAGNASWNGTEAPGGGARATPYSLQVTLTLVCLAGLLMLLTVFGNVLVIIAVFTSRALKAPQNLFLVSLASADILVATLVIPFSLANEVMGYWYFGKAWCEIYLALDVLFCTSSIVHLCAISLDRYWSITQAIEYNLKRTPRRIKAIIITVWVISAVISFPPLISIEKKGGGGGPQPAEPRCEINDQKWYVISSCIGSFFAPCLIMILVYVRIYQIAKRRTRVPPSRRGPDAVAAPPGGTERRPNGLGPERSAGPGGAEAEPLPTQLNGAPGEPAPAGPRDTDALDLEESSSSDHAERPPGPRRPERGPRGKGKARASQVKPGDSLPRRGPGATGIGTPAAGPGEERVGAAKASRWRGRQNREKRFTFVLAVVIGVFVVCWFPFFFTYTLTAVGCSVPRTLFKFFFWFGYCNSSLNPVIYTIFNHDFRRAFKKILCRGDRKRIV
Measured endpoint: IC50

Compound	Observed measurement
COC1(C2=NCCN2)COc2ccccc2O1 (stereo not shown) [RX 821002, reference compound]	1.15e-08 M

----------
molecular target: 5-HT1B (Homo sapiens, UniProt P28222)
Sequence (P28222 whole entry): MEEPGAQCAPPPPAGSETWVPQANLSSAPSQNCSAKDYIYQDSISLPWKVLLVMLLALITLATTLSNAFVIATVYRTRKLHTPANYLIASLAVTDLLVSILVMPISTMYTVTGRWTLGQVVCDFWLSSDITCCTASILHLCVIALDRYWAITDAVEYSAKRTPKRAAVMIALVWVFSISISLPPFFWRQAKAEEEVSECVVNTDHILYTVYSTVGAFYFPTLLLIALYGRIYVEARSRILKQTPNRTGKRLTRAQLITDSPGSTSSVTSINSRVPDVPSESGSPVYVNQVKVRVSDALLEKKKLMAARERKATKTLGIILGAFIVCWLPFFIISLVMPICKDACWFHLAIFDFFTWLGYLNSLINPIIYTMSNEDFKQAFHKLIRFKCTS
pIC50: −log10 of the molar value.

Compound	pIC50
COc1ccc(NC(=O)c2ccc(-c3ccncc3)c(C)c2)cc1N1CCN(C)CC1 [GR125743, reference compound]	8.31

----------
tested on: HC-CSC (human colon cancer stem cells); assay: MTT cytotoxicity, 2D HC-CSC; format: cell-based; conditions: HC-CSC, 24 h

Compound	IC50 / µM
CCCCCC(CC(=O)CCc1ccc(O)c(OC)c1)SC[C@H](NC(=O)CC[C@H](N)C(=O)O)C(=O)NCC(=O)O (stereo partly shown)	17.4

----------
target: Muscarinic M2 (Homo sapiens, UniProt P08172); test: InVEST radioligand filter binding, Muscarinic M2; settings: read-out: IC50 (M) of reference compound, tested in parallel
Sequence (P08172 whole entry): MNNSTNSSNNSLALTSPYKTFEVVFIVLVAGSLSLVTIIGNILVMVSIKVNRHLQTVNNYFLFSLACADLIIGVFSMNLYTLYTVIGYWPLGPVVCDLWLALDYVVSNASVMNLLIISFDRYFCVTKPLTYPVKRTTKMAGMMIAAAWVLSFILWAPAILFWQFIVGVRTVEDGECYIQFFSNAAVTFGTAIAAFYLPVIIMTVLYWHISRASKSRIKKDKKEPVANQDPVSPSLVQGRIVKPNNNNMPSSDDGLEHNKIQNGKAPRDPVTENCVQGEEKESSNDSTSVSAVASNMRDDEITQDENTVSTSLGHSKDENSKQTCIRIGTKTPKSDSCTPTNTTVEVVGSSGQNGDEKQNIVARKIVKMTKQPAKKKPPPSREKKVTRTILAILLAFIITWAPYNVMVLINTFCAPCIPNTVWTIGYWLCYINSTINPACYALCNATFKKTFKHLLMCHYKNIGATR
Measured endpoint: IC50 (M)

Compound	Target	Quantity unit	Observed measurement
CCCN(CCC)CC1CCCCN1CCNC(=O)N1c2ccccc2C(=O)Nc2cccnc21 (stereo not shown) [AF-DX 384, reference compound]	Muscarinic M2 (Homo sapiens, UniProt P08172)	M	1.79e-08

----------
biological target: PDE3A (Homo sapiens, UniProt Q14432); assay: InVEST enzymatic activity, PDE3A; assay type: biochemical; details: read-out: IC50 (M) of reference compound, tested in parallel
Sequence (Q14432 whole entry): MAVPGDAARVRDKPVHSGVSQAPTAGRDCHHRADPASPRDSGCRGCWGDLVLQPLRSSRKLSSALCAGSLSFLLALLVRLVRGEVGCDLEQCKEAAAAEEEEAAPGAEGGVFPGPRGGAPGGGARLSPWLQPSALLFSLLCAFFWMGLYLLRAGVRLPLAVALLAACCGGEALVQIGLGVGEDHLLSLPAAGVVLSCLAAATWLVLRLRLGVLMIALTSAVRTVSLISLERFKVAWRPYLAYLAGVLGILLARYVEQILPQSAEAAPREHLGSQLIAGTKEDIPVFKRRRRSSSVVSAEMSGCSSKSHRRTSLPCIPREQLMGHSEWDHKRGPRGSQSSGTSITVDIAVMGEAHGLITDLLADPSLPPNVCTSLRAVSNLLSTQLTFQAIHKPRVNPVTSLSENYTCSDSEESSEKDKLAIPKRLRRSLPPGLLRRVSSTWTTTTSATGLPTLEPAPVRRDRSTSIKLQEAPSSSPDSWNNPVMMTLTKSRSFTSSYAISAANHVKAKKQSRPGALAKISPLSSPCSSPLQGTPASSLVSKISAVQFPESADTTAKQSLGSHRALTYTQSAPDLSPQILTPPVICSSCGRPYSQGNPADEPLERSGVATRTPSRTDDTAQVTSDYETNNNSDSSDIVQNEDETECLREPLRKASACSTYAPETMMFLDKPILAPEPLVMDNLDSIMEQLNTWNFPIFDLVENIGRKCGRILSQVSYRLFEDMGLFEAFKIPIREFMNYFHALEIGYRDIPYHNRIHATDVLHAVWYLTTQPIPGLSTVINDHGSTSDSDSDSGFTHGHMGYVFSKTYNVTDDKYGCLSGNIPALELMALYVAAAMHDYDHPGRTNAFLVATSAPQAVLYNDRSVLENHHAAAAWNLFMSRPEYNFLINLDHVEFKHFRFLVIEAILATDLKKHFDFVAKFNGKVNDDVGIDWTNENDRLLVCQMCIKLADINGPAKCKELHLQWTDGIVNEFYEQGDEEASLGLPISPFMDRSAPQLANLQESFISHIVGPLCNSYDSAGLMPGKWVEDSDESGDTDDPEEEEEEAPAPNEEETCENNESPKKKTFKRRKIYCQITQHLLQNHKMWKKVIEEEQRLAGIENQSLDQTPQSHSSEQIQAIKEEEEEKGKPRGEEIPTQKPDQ

Molecule	IC50 (M)
CC(C)Cn1c(=O)n(C)c(=O)c2[nH]cnc21 [IBMX, reference compound]	2.21e-05

----------
target: AHR-activation (Homo sapiens)
Sequence (P35869 11-848): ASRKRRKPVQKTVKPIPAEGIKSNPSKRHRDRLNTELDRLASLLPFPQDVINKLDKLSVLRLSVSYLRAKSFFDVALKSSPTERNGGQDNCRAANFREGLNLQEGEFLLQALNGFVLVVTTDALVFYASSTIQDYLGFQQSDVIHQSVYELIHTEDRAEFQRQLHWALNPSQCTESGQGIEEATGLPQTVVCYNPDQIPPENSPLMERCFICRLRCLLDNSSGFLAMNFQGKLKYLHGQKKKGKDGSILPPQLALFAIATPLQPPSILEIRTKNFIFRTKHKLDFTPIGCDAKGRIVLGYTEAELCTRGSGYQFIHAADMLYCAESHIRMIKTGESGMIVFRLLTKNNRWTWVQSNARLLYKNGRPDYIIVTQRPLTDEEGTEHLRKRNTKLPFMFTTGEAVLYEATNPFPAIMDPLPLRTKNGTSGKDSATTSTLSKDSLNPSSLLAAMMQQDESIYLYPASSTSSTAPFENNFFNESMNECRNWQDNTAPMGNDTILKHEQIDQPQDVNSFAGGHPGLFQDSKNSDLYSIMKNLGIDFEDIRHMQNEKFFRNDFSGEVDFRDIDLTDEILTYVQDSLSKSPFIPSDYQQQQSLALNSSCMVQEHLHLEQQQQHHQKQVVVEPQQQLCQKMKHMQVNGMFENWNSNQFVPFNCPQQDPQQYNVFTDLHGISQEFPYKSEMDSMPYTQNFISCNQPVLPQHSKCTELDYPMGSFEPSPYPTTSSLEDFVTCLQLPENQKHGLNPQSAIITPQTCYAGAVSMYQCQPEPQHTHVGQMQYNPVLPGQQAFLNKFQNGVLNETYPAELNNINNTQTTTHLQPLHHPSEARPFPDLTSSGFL

Molecule	Quantity unit	IC50
O=Cc1c2[nH]c3ccccc3c2cc2[nH]c3ccccc3c12 [FICZ]	nM	10.5

----------
Target: CCK (Homo sapiens, UniProt P32238)
Sequence (P32238 1-428): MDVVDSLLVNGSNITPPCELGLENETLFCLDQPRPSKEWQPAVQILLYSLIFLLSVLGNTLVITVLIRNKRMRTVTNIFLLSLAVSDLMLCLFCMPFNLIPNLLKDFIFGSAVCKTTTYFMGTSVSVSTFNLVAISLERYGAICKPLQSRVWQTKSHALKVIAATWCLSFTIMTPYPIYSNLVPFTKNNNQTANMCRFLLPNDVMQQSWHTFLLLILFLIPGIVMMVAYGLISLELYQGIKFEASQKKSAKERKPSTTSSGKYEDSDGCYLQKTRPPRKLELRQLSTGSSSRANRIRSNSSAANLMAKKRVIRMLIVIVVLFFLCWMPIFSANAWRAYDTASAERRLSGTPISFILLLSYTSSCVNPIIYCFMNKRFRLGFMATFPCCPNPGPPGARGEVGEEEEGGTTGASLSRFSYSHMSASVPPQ
pIC50: −log10 of the molar value.

Compound	pIC50
CCCCCN(CCCCC)C(=O)C(CCC(=O)O)NC(=O)c1ccc(Cl)c(Cl)c1 (stereo not shown) [lorglumide, reference compound]	8.42

----------
target: PDE4A (Homo sapiens, UniProt P27815); experiment: InVEST enzymatic activity, PDE4A; assay type: biochemical; settings: read-out: IC50 (M) of reference compound, tested in parallel
Sequence (P27815 whole entry): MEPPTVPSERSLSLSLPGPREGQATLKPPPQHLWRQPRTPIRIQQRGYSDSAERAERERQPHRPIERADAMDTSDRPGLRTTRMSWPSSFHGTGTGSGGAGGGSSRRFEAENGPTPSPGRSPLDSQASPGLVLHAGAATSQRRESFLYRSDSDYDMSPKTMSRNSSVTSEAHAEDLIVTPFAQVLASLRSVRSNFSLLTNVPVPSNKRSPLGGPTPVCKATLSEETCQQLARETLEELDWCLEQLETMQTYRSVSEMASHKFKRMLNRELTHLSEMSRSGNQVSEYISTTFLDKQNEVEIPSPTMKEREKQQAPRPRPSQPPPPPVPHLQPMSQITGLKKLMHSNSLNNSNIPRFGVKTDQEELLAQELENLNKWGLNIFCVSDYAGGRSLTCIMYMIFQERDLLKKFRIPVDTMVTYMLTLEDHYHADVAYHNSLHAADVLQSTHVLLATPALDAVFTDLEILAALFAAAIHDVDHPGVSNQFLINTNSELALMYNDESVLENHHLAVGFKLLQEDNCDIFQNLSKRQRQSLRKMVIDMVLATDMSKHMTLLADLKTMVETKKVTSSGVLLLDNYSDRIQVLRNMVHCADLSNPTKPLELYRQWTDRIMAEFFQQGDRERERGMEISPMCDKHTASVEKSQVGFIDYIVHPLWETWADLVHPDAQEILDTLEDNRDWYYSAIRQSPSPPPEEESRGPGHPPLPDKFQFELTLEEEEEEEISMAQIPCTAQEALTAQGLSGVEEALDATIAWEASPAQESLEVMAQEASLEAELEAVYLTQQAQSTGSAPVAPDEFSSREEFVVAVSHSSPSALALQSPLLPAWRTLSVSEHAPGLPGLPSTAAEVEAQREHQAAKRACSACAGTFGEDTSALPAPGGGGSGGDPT

Compound	IC50, M
CC(C)Cn1c(=O)n(C)c(=O)c2[nH]cnc21 [IBMX, reference compound]	3e-05

----------
target: 5-HT3 (Homo sapiens, UniProt P46098); assay: InVEST radioligand filter binding, ion channel 5-HT3; details: read-out: IC50 (M) of reference compound, tested in parallel
Sequence (P46098 24-478): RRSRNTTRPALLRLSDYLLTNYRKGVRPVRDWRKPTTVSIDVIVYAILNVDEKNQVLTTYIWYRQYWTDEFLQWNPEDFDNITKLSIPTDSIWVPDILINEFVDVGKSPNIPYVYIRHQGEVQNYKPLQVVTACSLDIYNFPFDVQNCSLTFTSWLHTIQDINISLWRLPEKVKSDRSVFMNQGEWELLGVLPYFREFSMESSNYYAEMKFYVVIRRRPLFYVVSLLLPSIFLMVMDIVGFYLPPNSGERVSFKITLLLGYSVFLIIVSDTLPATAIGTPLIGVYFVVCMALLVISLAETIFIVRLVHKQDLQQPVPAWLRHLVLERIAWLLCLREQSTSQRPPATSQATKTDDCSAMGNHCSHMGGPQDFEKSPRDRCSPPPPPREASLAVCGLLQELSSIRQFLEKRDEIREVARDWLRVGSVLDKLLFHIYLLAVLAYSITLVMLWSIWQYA

Compound	IC50, M
Cc1[nH]cnc1CCC(=O)c1cn(C)c2ccccc12 [GR 65630, reference compound]	1.09e-09
